Data origin, for the record: patent US20080032921A1

Measured IC50 by item
target: HLA-DR DRB1*1501 (human); test: competition with 125I-labelled reference peptide on purified HLA-DR
OBSERVATION TYPE: IC50 (nM)

| BINDER | OBSERVATION TYPE | UNIT OF MEASURE | ENDPOINT VALUE |
| --- | --- | --- | --- |
| NLEYQIGYICSGVFG (modifications not checked) [Flu.NA.289 peptide …] | IC50 | nM | 13 |
| YIQMCTELKLSDYEG (modifications not checked) [Flu.NP.43 peptide …] | IC50 | nM | 594 |
| RTFFLTQGALLNDKHS (modifications not checked) [Flu.NA.110 peptide …] | IC50 | nM | 790 |
| TQGALLNDKHSNGTVKD (modifications not checked) [Flu.NA.115 peptide …] | IC50 | nM | 822 |
| VAVLKYNGIITDTIKSW (modifications not checked) [Flu.NA.183 peptide …] | IC50 | nM | 19 |
| NGTVKDRSPHRTLMS (modifications not checked) [Flu.NA.126 peptide …] | IC50 | nM | 267 |
| IGNMISIWVSHSIHTG (modifications not checked) [Flu.NA.26 peptide …] | IC50 | nM | 81 |
| WAVYSKDNSIRIGSK (modifications not checked) [Flu.NA.77 peptide …] | IC50 | nM | 642 |
| SLMLQIGNMISIWVSHS (modifications not checked) [Flu.NA.21 peptide …] | IC50 | nM | 34 |
